Test system: MCF-7 breast cancer cells
Experiment: MTT colorimetric cell viability assay, MCF-7
Type: cell-based
Settings: Homo sapiens, MCF7, MTT; mean of three experiments
Procedure: MCF-7 cells were maintained as monolayer in 25 cm^2 culture flasks (T-25) at 37 °C in DMEM medium (GIBCO, St. Louis, USA) supplemented with high glucose, L-glutamine, pyridoxine hydrochloride, 110 mg/L sodium pyruvate, 3.7 g/L NaHCO3 and antibiotics (Penicillin-10,000 units/mL, Streptomycin −10,000 μg/mL, GIBCO, USA). […] The MTT colorimetric viability assay was performed to evaluate the anticancer effect of compounds. […] The colorimetric assay was read by a MultiMode Plate Reader (Bio-Rad) at 595 nm. […]
PROPERTY NAME: EC50 (µM)

{"columns": ["COMPOUND", "QUANTITATIVE RESULT"],
 "data": [
  ["COc1cc(OC)c(C2NCCC23C(=O)Nc2ccccc23)cc1OC (stereo not drawn) [Compound 5i]", 4.01]
]}

P: O=C1Nc2ccccc2C12CCNC2c1cccc(F)c1 (stereo not drawn) [Compound 5e]
Q: O=C1Nc2ccccc2C12CCNC2c1ccccc1 (stereo not drawn) [Compound 5l]
Exercise: Between P and Q , whose recorded EC50 is greater? # reply format: chosen label
Solution: P
(P: 6 µM, Q: 3.5 µM)
